Provide the reported inhibition of each item.
# Target Entity: Nuclear receptor coactivator 1 (Homo sapiens)
# Method Notes: SRC1 coactivator transcriptional activity inhibitors, confirmation, cell-based, luminescence, quadruplicate (AID 588820);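 further: 0% = DMSO wells and 100% = gossypol 36 µM treated wells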
# Settings: HEK293 GAL4-SRC1 luciferase reporter, at 3.6 µM, hits give high values
The answer is to be given in %; state only the numeric part.

// recorded inhibition for CCOC(=O)CSc1cc(-c2ccccc2)nc2ncnn12 : 17.9

// recorded inhibition for CCn1c(C)cc(C(=O)COC(=O)c2ccccc2[N+](=O)[O-])c1C : 86.8

// recorded inhibition for CCCCC(=O)NC(c1ccccc1)c1ccc2cccnc2c1O (centres undefined) : 27.8

// recorded inhibition for COC(=O)c1cn(NC(=O)c2cc([N+](=O)[O-])ccc2F)c(=O)c2ccccc12 : 51.1

// recorded inhibition for Nc1nc(/C=C/c2cccnc2)nc(-c2ccccc2O)n1 : -16.8

// recorded inhibition for Cc1cc(NC(=O)CN2CCN(S(=O)(=O)c3ccc4ccccc4c3)CC2)no1 : -3.08

// recorded inhibition for CS(=O)(=O)c1ccc(NC(=O)CCN2C(=O)C3CCCCC3C2=O)cc1 (centres undefined) : -9.83

// recorded inhibition for CCC1(O)C(=O)OCc2c1cc1n(c2=O)Cc2cc3cc(O)ccc3nc2-1 (centres undefined) : 68.8

// recorded inhibition for O=C1Nc2cc(C(=O)NCC3CCCO3)ccc2S/C1=C/c1ccccc1F (centres undefined) : -7.31

----------
# Target Entity: Insulin-degrading enzyme (Homo sapiens)
# Method Notes: human IDE inhibitors in live cells, confirmation, fluorescence polarization, HEK cells, FAbetaB substrate (AID 435028);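 further: 0% = DMSO wells and 100% = 60 µM reference IDE inhibitor Ii1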
# Settings: FAbetaB cleavage, at 5.59 µM, hits give high values
Some of the results follow.
Measurement Type: inhibition (%)
The answer is to be given in %; state only the numeric part.

// recorded inhibition for Cc1c(C(=O)Nc2cccc(-c3nnc4n3CCCCC4)c2)oc2ccccc12 : 5.89

// recorded inhibition for Fc1ccc2[nH]c3c(N4CCSCC4)ncnc3c2c1 : 7.91

// recorded inhibition for Nc1c(C(=O)c2cccs2)sc2nsc(SCCN3CCCCC3)c12 : 54.9

// recorded inhibition for O=C(C1=C[C@H](c2coc3ccccc3c2=O)C[C@H](OCc2ccc(CO)cc2)O1)N1CCN(Cc2ccccc2)CC1 : 2.63

// recorded inhibition for CCOc1cc2c(Cl)ncnc2c(OCC)c1OCC : 4.73

----------
# System: T-cell receptor (TCR)-CD3 interaction, human
# Method Notes: TCR-CD3 interaction inhibitors, retest, confirmation, biochemical, fluorescence, TAMRA-labeled TCR probe (AID 652036)
# Settings: TAMRA-labeled TCR probe fluorescence binding assay; at 9.4 µM; hits give high values
This is one part of the list.
Lab note: compare inhibition against 30%. Equal or greater, write MET. Smaller, write NOT MET.

Query: Has Cc1cc2ccccc2n1CCNC(=O)COc1ccc2ccccc2c1 a recorded inhibition greater than or equal to 30%?
Result: NOT MET

Query: Has Oc1ccc(N=Cc2c(O)ccc3ccccc23)cc1 a recorded inhibition greater than or equal to 30%?
Result: NOT MET

Query: Has COc1ccc(Br)cc1C(=O)NC(=S)Nc1cc(-c2nc3ccccc3[nH]2)ccc1C a recorded inhibition greater than or equal to 30%?
Result: MET

Query: Has O=C1C(Cc2ccc(O)cc2)NC(=S)N1Cc1ccccc1 (stereo unspecified) a recorded inhibition greater than or equal to 30%?
Result: NOT MET

Query: Has O=[N+]([O-])c1cc(Cl)cc(/C=N/NC(=S)Nc2cc(S(=O)(=O)N3CCOCC3)ccc2Cl)c1O a recorded inhibition greater than or equal to 30%?
Result: MET

Query: Has COc1ccc(-c2c(-c3cc(OC)cc(OC)c3)n(C)c3ccc(-c4ccn[nH]4)cc23)cc1 a recorded inhibition greater than or equal to 30%?
Result: NOT MET
